biological target: wildtype Kras / hSOS1 (Homo sapiens, UniProt P01116); construct: made in house; host or cells: E. coli BL21 (DE3); assay: HTRF assay, wildtype Kras / SOS1 interaction; type: binding; conditions: compound nos. 102-196, general methodology of example 5; read-out: IC50 against wildtype Kras
Sequence (P01116 1-188 isoform P01116-2): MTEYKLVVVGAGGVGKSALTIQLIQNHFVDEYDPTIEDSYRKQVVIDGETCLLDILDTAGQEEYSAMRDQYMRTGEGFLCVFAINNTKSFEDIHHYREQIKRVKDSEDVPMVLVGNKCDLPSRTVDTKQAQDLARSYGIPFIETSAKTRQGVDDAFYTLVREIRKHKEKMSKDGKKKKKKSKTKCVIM
measure: IC50

IC50 measured on `CN1CCN(c2nc(OC[C@@H]3CCCN3C)nc3c(F)c(-c4cccc5sc(N)nc45)c(Cl)cc23)CC(F)(F)C1` = > 500 nM

// recorded IC50 for CN1CCC[C@H]1COc1nc(N2CCNCC(O)C2)c2cc(Cl)c(-c3cccc4sc(N)nc34)c(F)c2n1 (stereo partly drawn) : < 500 nM

The reported value for `Nc1nc2c(-c3c(Cl)cc4c(N5CCCOCC5)nc(OC[C@@]56CCCN5C[C@H](F)C6)nc4c3F)ccc(F)c2s1` in terms of IC50 is < 500 nM

###

// reported pIC50 per item
biological target: GST-tagged K-Ras mutant / His-tagged hSOS1 (Homo sapiens, UniProt P01116); experiment: HTRF assay, K-Ras mutant / SOS1 interaction; format: binding; conditions: compound nos. 102-196, general methodology of example 5; read-out: IC50 against mutant Kras
Sequence (P01116 whole entry G12D, form open): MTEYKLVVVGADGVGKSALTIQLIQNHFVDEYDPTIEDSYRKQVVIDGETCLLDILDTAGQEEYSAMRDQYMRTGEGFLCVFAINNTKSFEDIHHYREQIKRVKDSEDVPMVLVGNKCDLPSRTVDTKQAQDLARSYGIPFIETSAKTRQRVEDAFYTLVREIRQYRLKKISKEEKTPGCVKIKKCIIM
pIC50: −log10 of the molar value.

CN1CCC[C@@H]1COc1nc(N2CCNCC(F)(F)C2)c2cc(Cl)c(-c3cccc4sc(N)nc34)c(F)c2n1 = > 6.30

// field: pIC50; key: `CN1CCC[C@H]1COc1nc(N2CCNCC(F)(F)C2)c2cc(Cl)c(-c3cccc4oc(N)nc34)c(F)c2n1` ; value = > 6.30

###

molecular target: GST-tagged K-Ras mutant / His-tagged hSOS1 (Homo sapiens, UniProt P01116); experiment: HTRF assay, K-Ras mutant / SOS1 interaction; type: binding; conditions: compound nos. 102-196, general methodology of example 5; read-out: IC50 against mutant Kras
measure: IC50

See these solved cases before continuing.
CN1CCC[C@H]1COc1nc(N2CCOCC(F)(F)C2)c2cc(Cl)c(-c3ccc(F)c4sc(N)nc34)c(F)c2n1 = < 500 nM
CN1CCc2c(cccc2Oc2nc(N3CCNCC(F)(F)C3)c3cc(Cl)c(-c4cccc5sc(N)nc45)c(F)c3n2)C1 = > 500 nM
CN1CCC[C@H]1COc1nc(N2CCNCC(F)(F)C2)c2cc(Cl)c(-c3cccc4oc(O)nc34)c(F)c2n1 = > 500 nM
CN1CCC[C@H]1COc1nc(N2CCNCC(F)(F)C2)c2cc(Cl)c(-c3cccc4sc(N)nc34)c(F)c2n1 = < 500 nM
CN1CCC[C@H]1COc1nc(N2CCNCC(F)(F)C2)c2cc(Cl)c(-c3cccc4sc(O)nc34)c(F)c2n1 = > 500 nM

Measured IC50 of `CO[C@H]1C[C@@H](COc2nc(N3CCNCC(F)(F)C3)c3cc(Cl)c(-c4cccc5sc(N)nc45)c(F)c3n2)N(C)C1` : > 500 nM

###

Target: wildtype Kras / hSOS1 (Homo sapiens, UniProt P01116)
Construct: made in house; host or cells: E. coli BL21 (DE3)
Assay: HTRF assay, wildtype Kras / SOS1 interaction
Assay type: binding
Details: compound nos. 401-703; read-out: IC50 against wildtype Kras
Description: This assay can be also used to assess a selective inhibition of a mutant Ras protein relative to a wildtype, or relative to a different mutant Ras protein. For example, the equilibrium interaction of wildtype Kras or K-Ras mutant (e.g., wildtype or a mutant thereof including those mentioned in Example 6) with SOS1 (e.g., hSOS1) can be assessed as a proxy or an indication for a subject compound's ability to bind and inhibit Ras protein. […]
pIC50: −log10 of the molar value.
measure: pIC50

As a guide, the following entries are already answered.
CN1CCCC1CCn1nc(N2CC3CCC(C2)N3)c2ccc(-c3ccc(F)c4sc(N)nc34)c(F)c2c1=O (stereo not drawn) = > 6.30
CN1CCC[C@H]1COc1nc(N2CCNCC(F)(F)C2)c2cc(Cl)c(-c3cccc4cnc(N)nc34)c(F)c2n1 = < 6.30

Consider now this further compound.
Sample `Cc1ccc(C#N)cc1-c1c(Cl)cc2c(N3CC4CCC(C3)N4)nc(OCC34CCCN3CCC4)nc2c1F` ; pIC50 observed: < 6.30

###

Documented IC50 across a set of molecules
Biological target: wildtype Kras / hSOS1 (Homo sapiens, UniProt P01116)
Construct: made in house; host or cells: E. coli BL21 (DE3)
Experiment: HTRF assay, wildtype Kras / SOS1 interaction
Format: binding
Settings: compound nos. 102-196, general methodology of example 5; read-out: IC50 against wildtype Kras
Description: This assay can be also used to assess a selective inhibition of a mutant Ras protein relative to a wildtype, or relative to a different mutant Ras protein. For example, the equilibrium interaction of wildtype Kras or K-Ras mutant (e.g., wildtype or a mutant thereof including those mentioned in Example 6) with SOS1 (e.g., hSOS1) can be assessed as a proxy or an indication for a subject compound's ability to bind and inhibit Ras protein. […]

Nc1nc2c(-c3c(Cl)cc4c(N5CCCCC(F)C5)nc(OC[C@@]56CCCN5C[C@H](F)C6)nc4c3F)ccc(F)c2s1 (stereo partly drawn) [Compound 190] = < 500 nM
CN1CCC[C@H]1COc1nc(N2CCN(C(=O)CN)CC(F)(F)C2)c2cc(Cl)c(-c3cccc4sc(N)nc34)c(F)c2n1 [Compound 141] = < 500 nM
CN1CCc2c(cccc2Oc2nc(N3CCNCC(F)(F)C3)c3cc(Cl)c(-c4cccc5sc(N)nc45)c(F)c3n2)C1 [Compound 153] = > 500 nM

Nc1nc2c(-c3c(Cl)cc4c(N5CCNCC(F)(F)C5)nc(OCc5ccccn5)nc4c3F)cccc2s1 [Compound 139] yielded IC50 of > 500 nM

The reported IC50 of the molecule Nc1nc2c(-c3c(Cl)cc4c(N5CCNCC(F)C5)nc(OCC56CCCN5CCC6)nc4c3F)ccc(F)c2s1 (stereo not drawn) [Compound 163] was < 500 nM

Documented IC50 of CN1CCC[C@H]1COc1nc(N2CCN(S(N)(=O)=O)CC(F)(F)C2)c2cc(Cl)c(-c3cccc4sc(N)nc34)c(F)c2n1 [Compound 150] : < 500 nM

# IC50 of CN1CCC[C@H]1COc1nc(N2CCNCC3(CC3)C2)c2cc(Cl)c(-c3cccc4sc(N)nc34)c(F)c2n1 [Compound 128] = > 500 nM

Recorded result, Cc1nc2c(-c3c(Cl)cc4c(N5CCNCC(F)(F)C5)nc(OC[C@@H]5CCCN5C)nc4c3F)cccc2s1 [Compound 138] , IC50: > 500 nM

Per the record, CN1CCC[C@H]1COc1nc(N2CCNCC(F)(F)C2)c2cc(Cl)c(-c3cccc4nc(O)oc34)c(F)c2n1 [Compound 169] has IC50 of > 500 nM

###

compounds and their reported pIC50
biological target: GST-tagged K-Ras mutant / His-tagged hSOS1 (Homo sapiens); assay: HTRF assay, K-Ras mutant / SOS1 interaction; assay type: binding; conditions: compound nos. 102-196, general methodology of example 5; read-out: IC50 against mutant Kras
pIC50: −log10 of the molar value.

Nc1nc2c(-c3c(Cl)cc4c(N5CCNCC(F)(F)C5)nc(OCCCN5CCOCC5)nc4c3F)cccc2s1 = < 6.30
Nc1nc2c(-c3c(Cl)cc4c(N5CCNCC(F)(F)C5)ncnc4c3F)cccc2s1 = < 6.30
CN1CCC[C@H]1COc1nc(N2CCNC3COCC32)c2cc(Cl)c(-c3cccc4sc(N)nc34)c(F)c2n1 (some centres unmarked) = < 6.30
Nc1nc2c(-c3c(Cl)cc4c(N5CCCOCC5)nc(OC[C@@]56CCCN5C[C@H](F)C6)nc4c3F)cccc2o1 = > 6.30
CN1CCC[C@H]1COc1nc(N2CCNCC(F)(F)C2)c2cc(Cl)c(-c3cccc4oc(C#N)nc34)c(F)c2n1 = < 6.30
Cn1cnnc1COc1nc(N2CCNCC(F)(F)C2)c2cc(Cl)c(-c3cccc4sc(N)nc34)c(F)c2n1 = < 6.30

// pIC50 lookup, compound = `CN1CCC(COc2nc(N3CCNCC(F)(F)C3)c3cc(Cl)c(-c4cccc5sc(N)nc45)c(F)c3n2)CC1` , result: < 6.30

// pIC50 lookup, compound = N#CC1CCCN(c2nc(OCC34CCCN3CCC4)nc3c(F)c(-c4ccc(F)c5sc(N)nc45)c(Cl)cc23)CC1 (centres unmarked) , result: > 6.30

###

target: GST-tagged K-Ras mutant / His-tagged hSOS1 (Homo sapiens); test: HTRF assay, K-Ras mutant / SOS1 interaction; assay type: binding; conditions: compound nos. 102-196, general methodology of example 5; read-out: IC50 against mutant Kras
Quick reference for IC50 among some compounds

Example results:
CN1CCC[C@H]1COc1nc(N2C3CCNCC2CC3)c2cc(Cl)c(-c3cccc4sc(N)nc34)c(F)c2n1 (stereo partly drawn) = < 500 nM
CN1CCC[C@H]1COc1nc(N2CCNCC(F)(F)C2)c2cc(Cl)c(-c3cccc4sc(NCC(F)(F)F)nc34)c(F)c2n1 = > 500 nM

For the next question, use this compound.
Per the record, `CN1CCC[C@H]1COc1nc(N2CCNCC(F)(F)C2)c2cc(Cl)c(-c3cccc4nc(N)n(C)c34)c(F)c2n1` has IC50 of > 500 nM

The measured values listed here are drawn from patent US20240254129A1.
